Item-by-item account of Metabolic stability HLM % remaining in 30 min
# test: Metabolic stability in liver microsomes, HLM
# study-conditions: 1 μM, NADPH
Structures can show the parent of a compound that is named as a salt.
The reply should read as a number followed by its unit.

O=C(NO)c1ccc(CCCn2cnc(CNC3CC3c3ccc(F)c(F)c3)c2)cc1 (centres unmarked) [Example 73, TFA Salt]
52%
Nc1ccccc1NC(=O)c1ccc(CN2CCC(CN[C@@H]3C[C@H]3c3ccccc3)CC2)cc1 [Example 140, TFA Salt]
85%

So, O=C(NO)c1ccc(CCC(=O)N2CCC(CNC3CC3c3ccccc3)CC2)cc1 (centres unmarked) [Example 82, TFA Salt] ? Its Metabolic stability HLM % remaining in 30 min was 77%

Value of Metabolic stability HLM % remaining in 30 min reported for the compound O=C(NO)c1cnc(N2CCC(CNC3CC3c3ccc(F)cc3)CC2)nc1 (centres unmarked) [Example 8, TFA Salt] is 88%

Notebook: O=C(NO)c1ccc(N2CCC(CNC3CC3c3ccc(F)cc3)CC2)cc1 (centres unmarked) [Example 22, TFA Salt] , Metabolic stability HLM % remaining in 30 min read as 60%

Notebook: O=C(NO)c1cnc(N2CCn3cc(CNC4CC4c4ccccc4)nc3C2)nc1 (centres unmarked) [Example 23, TFA Salt] , Metabolic stability HLM % remaining in 30 min read as 95%

The compound listed as O=C(NO)c1ccc(CC(=O)N2CCC(CNC3CC3c3ccccc3)CC2)cc1 (centres unmarked) [Example 84, TFA Salt] shows Metabolic stability HLM % remaining in 30 min equal to 78%

Note to self: Metabolic stability HLM % remaining in 30 min recorded for Cn1cc(-c2ccc(C3CC3NCC3CN(CCCc4ccc(C(=O)NO)cc4)C3)cc2)cn1 (centres unmarked) [Example 63, TFA Salt] was 86%

###

# test: In vivo PK studies in mice
# Set-up: species or system Male Balb/C mice
# study-conditions: male, Balb/C, mouse, plasma, dose IV/PO 2/10 mg/kg
# Protocol: In Vivo PK Studies in Mice All the animal experiments were approved by Institutional Animal Ethical Committee (IAEC/JDC/2015/72). Male Balb/C mice (n=24) were procured from Vivo Biotech, Hyderabad, India. […] Plasma concentration-time data of the compound was analyzed by non-compartmental method using Phoenix WinNonlin Version 6.3 (Pharsight Corporation, Mountain View, Calif.).
Where a name gives a salt, the structure may show the parent alone.
measurement-kind: bioavailability (%)
The figure you give is taken to be in %; do not add the unit.

O=C(NO)c1ccc(CCCN2CCC(CNC3CC3c3ccc(-c4ccc(F)cc4)cc3)CC2)cc1 (centres unmarked) [Example 57, TFA Salt]
80

Now take the following molecule into account.
Record O=C(NO)c1ccc(/C=C/C(=O)N2CCC(CN[C@@H]3C[C@H]3c3ccc(F)cc3)CC2)cc1 [Example 115A, TFA Salt] . Reported bioavailability: 43

###

# Metabolic stability HLM % remaining in 30 min per record follows
# test: Metabolic stability in liver microsomes, HLM
# study-conditions: 1 μM, NADPH
Where a name gives a salt, the structure may show the parent alone.
Provide the reading as a plain figure in %.

Consider the following illustrative entries.
O=C(NO)c1cc2c(s1)CCN(C(=O)CCCNC1CC1c1ccc(F)cc1)C2 (stereo not shown) [Example 105, TFA Salt]
77
Nc1ccccc1NC(=O)c1ccc(CCCN2CCC(CNC3CC3c3ccccc3)CC2)cc1 (stereo not shown) [Example 121, TFA Salt]
36
Nc1ccccc1NC(=O)c1ccc(/C=C/C(=O)N2CC(CNC3CC3c3ccc(F)cc3)C2)cc1 (stereo not shown) [Example 157, TFA Salt]
53
Nc1ccccc1NC(=O)c1ccc(OCCNC2CC2c2ccc(F)cc2)cc1 (stereo not shown) [Example 148, TFA Salt]
46

Noted for Cc1noc(C)c1-c1ccc(C2CC2NCC2CCN(Cc3ccc(C(=O)Nc4ccccc4N)cc3)CC2)cc1 (stereo not shown) [Example 143, TFA Salt] : its Metabolic stability HLM % remaining in 30 min reads 37

GET /value?item= O=C(NO)c1ccc(CCCN2CC(CNC3CC3c3ccc(F)cc3)C2)cc1 (stereo not shown) [Example 48, TFA Salt] &field=Metabolic stability HLM % remaining in 30 min returns 85

// Metabolic stability HLM % remaining in 30 min lookup, compound = CC(NC1CC1c1ccccc1)[C@H]1CC[C@H](C(=O)NO)CC1 (stereo partly shown) [Example 34, TFA Salt] , result: 90

// Metabolic stability HLM % remaining in 30 min lookup, compound = Nc1ccccc1NC(=O)c1ccc(CC(=O)N2CCC(CNC3CC3c3ccc(F)cc3)CC2)cc1 (stereo not shown) [Example 147, TFA Salt] , result: 48

Field Metabolic stability HLM % remaining in 30 min (entry O=C(NO)c1ccc(/C=C/C(=O)N2CCC(CN[C@@H]3C[C@H]3c3ccc(F)cc3)CC2)cc1 [Example 115A, TFA Salt] ) reads 59

The compound listed as Cn1cc(-c2ccc(C3CC3NCC3CCN(Cc4ccc(C(=O)Nc5ccccc5N)cc4)CC3)cc2)cn1 (stereo not shown) [Example 142, TFA Salt] has a reported Metabolic stability HLM % remaining in 30 min of 72

###

# target-of-assay: LSD1 (Homo sapiens (Human), UniProt O60341)
# test: TR-FRET Assay for LSD1
# study-conditions: read-out: LSD1 IC50
Counter-ions that a name gives are not always drawn.
measurement-kind: IC50 (nM)
Provide only the numeric value, understood in nM.

O=C(NO)c1ccc(C(=O)NCCN2CCC(CNC3CC3c3ccc(F)c(F)c3)CC2)cc1 (stereo not drawn) [Example 90, TFA Salt]
21

Tested on LSD1 (Homo sapiens (Human), UniProt O60341): O=C(NO)c1ccc(CCCN2CCC(CNC3CC3c3ccc(F)cc3)CC2)cc1 (stereo not drawn) [Example 47, TFA Salt] . Observed IC50: 6

With LSD1 (Homo sapiens (Human), UniProt O60341) as the test system, Nc1ccccc1NC(=O)c1ccc(CCCN2CC3(CC(NC4CC4c4ccccc4)C3)C2)cc1 (stereo not drawn) [Example 127, TFA Salt] showed IC50 of 764

Lab note: compound CC(C)n1cc(C2CC2NCC2CCN(CCCc3ccc(C(=O)Nc4ccccc4N)cc3)CC2)cn1 (stereo not drawn) [Example 128, TFA Salt] tested on LSD1 (Homo sapiens (Human), UniProt O60341); recorded IC50 was 128

// returns IC50 for Cn1cc(-c2ccc(C3CC3NCC3CCN(CCCc4ccc(C(=O)NO)cc4)CC3)cc2)cn1 (stereo not drawn) [Example 62, TFA Salt] with LSD1 (Homo sapiens (Human), UniProt O60341); value = 43

The compound CN1C(=O)C(C)(C)c2cc(C3CC3NCC3CCN(CCCc4ccc(C(=O)NO)cc4)CC3)ccc21 (stereo not drawn) [Example 81, TFA Salt] on LSD1 (Homo sapiens (Human), UniProt O60341): IC50 was 394

The compound O=C(NO)c1ccc(CCCN2CC(CNC3CC3c3ccc(-c4ccc(F)cc4)cc3)C2)cc1 (stereo not drawn) [Example 58, TFA Salt] on LSD1 (Homo sapiens (Human), UniProt O60341): IC50 was 25

LSD1 (Homo sapiens (Human), UniProt O60341) assay, compound Cn1cc(-c2ccc(C3CC3NCC3CCN(Cc4ccc(C(=O)NO)cc4)CC3)cc2)ccc1=O (stereo not drawn) [Example 35, TFA Salt] , recorded IC50 = 34

###

Reported IC50 by item:
# target-of-assay: LSD1 (Homo sapiens (Human), UniProt O60341)
# test: TR-FRET Assay for LSD1
# study-conditions: read-out: LSD1 IC50
Where a name gives a salt, the structure may show the parent alone.
Give a bare numeral; the unit µM is implied.

O=C(NO)c1ccc(C(=O)NCCN2CCC(CNC3CC3c3ccccc3)CC2)cc1 (stereo not shown) [Example 89, TFA Salt]
0.02
Nc1ccc(F)cc1NC(=O)c1ccc(CCCN2CCC(CNC3CC3c3ccc(F)cc3)CC2)cc1 (stereo not shown) [Example 132, TFA Salt]
0.005
Nc1ccccc1NC(=O)c1ccc(CCC(=O)N2CCC(NC3CC3c3ccccc3)CC2)cc1 (stereo not shown) [Example 133, TFA Salt]
0.04
O=C(NO)c1ccc(CCCN2CCC(CNC3CC3c3ccc(OCc4ccc(F)cc4)cc3)CC2)cc1 (stereo not shown) [Example 52, TFA Salt]
0.004
Nc1ccccc1NC(=O)c1ccc(CCCn2cc(CNC3CC3c3ccccc3)nn2)cc1 (stereo not shown) [Example 137, TFA Salt]
0.139
O=C(NO)c1csc(CCCN2CCC(CNC3CC3c3ccc(-c4ccc(F)cc4)cc3)CC2)n1 (stereo not shown) [Example 111, TFA Salt]
0.022

Let us examine a further case.
Lab note: Nc1ccccc1NC(=O)c1ccc(CC(=O)N2CCC(CNC3CC3c3ccc(F)cc3)CC2)cc1 (stereo not shown) [Example 147, TFA Salt] gave IC50 of 0.032
